Biological target: Peptidyl-prolyl cis-trans isomerase FKBP1A (Homo sapiens, UniProt P62942)
Sequence (P62942 whole entry): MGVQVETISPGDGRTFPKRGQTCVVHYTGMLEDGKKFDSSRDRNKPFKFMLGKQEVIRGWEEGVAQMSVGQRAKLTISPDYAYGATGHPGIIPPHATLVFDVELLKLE
Experiment: Inhibition of recombinant human FKBP12 expressed in Escherichia coli using succinyl-Ala-Phe-Pro-Phe-4-nitroanilide as substrate measured after 5 to 10 mins by spectrophotometric method
pKi: −log10 of the molar value.
measuredEndpoint: pKi

mol | testTarget | measuredNumber
CCO[C@H]1C[C@@H]2CC[C@@H](C)[C@@](O)(O2)C(=O)C(=O)N2CCCC[C@H]2C(=O)O[C@H]([C@H](C)C[C@@H]2CC[C@@H](O)[C@H](OC)C2)CC(=O)[C@H](C)/C=C(\C)[C@@H](O)[C@@H](OC)C(=O)[C@H](C)C[C@H](C)/C=C/C=C/C=C/1C | Peptidyl-prolyl cis-trans isomerase FKBP1A (Homo sapiens, UniProt P62942) | 8.46
CO[C@@H]1C[C@H](C[C@@H](C)[C@@H]2CC(=O)[C@H](C)/C=C(\C)[C@@H](O)[C@@H](OC)C(=O)[C@H](C)C[C@H](C)/C=C/C=C/C=C(\C)[C@@H](OCc3cccc([N+](=O)[O-])c3)C[C@@H]3CC[C@@H](C)[C@@](O)(O3)C(=O)C(=O)N3CCCC[C@H]3C(=O)O2)CC[C@H]1O | Peptidyl-prolyl cis-trans isomerase FKBP1A (Homo sapiens, UniProt P62942) | 8.15
COc1ccc([C@H]2C[C@@H]3CC[C@@H](C)[C@@](O)(O3)C(=O)C(=O)N3CCCC[C@H]3C(=O)O[C@H]([C@H](C)C[C@@H]3CC[C@@H](O)[C@H](OC)C3)CC(=O)[C@H](C)/C=C(\C)[C@@H](O)[C@@H](OC)C(=O)[C@H](C)C[C@H](C)/C=C/C=C/C=C/2C)c(OC)c1 | Peptidyl-prolyl cis-trans isomerase FKBP1A (Homo sapiens, UniProt P62942) | 8.05

Values were extracted from ChEMBL document CHEMBL4257468.
